- Tested on: Staphylococcus aureus
- measurement-protocol: Antibacterial activity against Staphylococcus aureus ATCC 29213 by CLSI based susceptibility test method
- Format: functional
Listed here are molecules together with their documented MIC.

Here are 5 molecules together with their reported answers.
molecule	assay-system	readout-type	measured-result
C[S+](C)[O-] [DIMETHYL SULFOXIDE]	Staphylococcus aureus	MIC	> 64 µg/mL
CC1(C)S[C@@H]2[C@H](NC(=O)[C@H](N)c3ccccc3)C(=O)N2[C@H]1C(=O)O [AMPICILLIN]	Staphylococcus aureus	MIC	0.25 µg/mL
COC(=O)Nc1coc(C(=O)Nc2coc(C(=O)NCCc3ccc(O)cc3)c2)c1 [PROXIMICIN B]	Staphylococcus aureus	MIC	16 µg/mL
COC(=O)Nc1coc(C(=O)Nc2coc(C(=O)NCCCCCNC(=O)c3cc(NC(=O)c4cc(NC(=O)OC)co4)co3)c2)c1	Staphylococcus aureus	MIC	> 64 µg/mL
COC(=O)Nc1coc(C(=O)Nc2coc(C(=O)NCCc3c[nH]c4ccccc34)c2)c1 [PROXIMICIN C]	Staphylococcus aureus	MIC	> 64 µg/mL

// fetch MIC for CNC(=O)c1cc(NC(=O)c2cc(NC(=O)OC)co2)co1 ; system: Staphylococcus aureus > 64 µg/mL

// fetch MIC for COc1cc(Cc2cnc(N)nc2N)cc(OC)c1OC [TRIMETHOPRIM] ; system: Staphylococcus aureus 2 µg/mL

// fetch MIC for COC(=O)Nc1coc(C(=O)Nc2coc(C(=O)NCCc3ccccc3)c2)c1 ; system: Staphylococcus aureus > 64 µg/mL

* * *

- Test system: Bacillus subtilis
- measurement-protocol: Antibacterial activity against Bacillus subtilis 1064 by CLSI based susceptibility test method
- Type: functional
readout-type: MIC (µg/mL)
Output spec: scalar in µg/mL, unitless text.

given-smiles	measured-result
COc1cc(Cc2cnc(N)nc2N)cc(OC)c1OC	0.25

Lab note: next compound to report on.
Supply reported MIC belonging to this compound: COC(=O)Nc1coc(C(=O)Nc2coc(C(=O)NCCc3ccc(O)cc3)c2)c1 8

* * *

- Tested on: Bacillus subtilis
- measurement-protocol: Antibacterial activity against Bacillus subtilis 1064 by CLSI based susceptibility test method
- Type: functional
Listed here are compounds together with their documented MIC.
Output spec: scalar in µg/mL, unitless text.

given-smiles	MIC (µg/mL)
COC(=O)Nc1coc(C(=O)Nc2coc(C(=O)NCCc3ccccc3)c2)c1	32
CC1(C)S[C@@H]2[C@H](NC(=O)[C@H](N)c3ccccc3)C(=O)N2[C@H]1C(=O)O	0.25

Supply reported MIC belonging to this compound: CN[C@H](CC(C)C)C(=O)N[C@H]1C(=O)N[C@@H](CC(N)=O)C(=O)N[C@H]2C(=O)N[C@H]3C(=O)N[C@H](C(=O)N[C@H](C(=O)O)c4cc(O)cc(O)c4-c4cc3ccc4O)[C@H](O)c3ccc(c(Cl)c3)Oc3cc2cc(c3O[C@@H]2O[C@H](CO)[C@@H](O)[C@H](O)[C@H]2O[C@H]2C[C@](C)(N)[C@H](O)[C@H](C)O2)Oc2ccc(cc2Cl)[C@H]1O 0.5

* * *

Listed here are compounds together with their documented MIC.
- System: Micrococcus luteus
- measurement-protocol: Antibacterial activity against Micrococcus luteus SCSIO ML01 by CLSI based susceptibility test method
- Type: functional

Here are 8 compounds together with their reported answers.
compound	MIC
COC(=O)Nc1coc(C(=O)Nc2coc(C(=O)NCCc3c[nH]c4ccccc34)c2)c1	> 64 µg/mL
CC1(C)S[C@@H]2[C@H](NC(=O)[C@H](N)c3ccccc3)C(=O)N2[C@H]1C(=O)O	0.5 µg/mL
COC(=O)Nc1coc(C(=O)Nc2coc(C(=O)NCCCCCNC(=O)c3cc(NC(=O)c4cc(NC(=O)OC)co4)co3)c2)c1	> 64 µg/mL
C[S+](C)[O-] [DIMETHYL SULFOXIDE]	> 64 µg/mL
COc1cc(Cc2cnc(N)nc2N)cc(OC)c1OC	2 µg/mL
COC(=O)Nc1coc(C(=O)Nc2coc(C(=O)NCCc3ccc(O)cc3)c2)c1	> 64 µg/mL
CN[C@H](CC(C)C)C(=O)N[C@H]1C(=O)N[C@@H](CC(N)=O)C(=O)N[C@H]2C(=O)N[C@H]3C(=O)N[C@H](C(=O)N[C@H](C(=O)O)c4cc(O)cc(O)c4-c4cc3ccc4O)[C@H](O)c3ccc(c(Cl)c3)Oc3cc2cc(c3O[C@@H]2O[C@H](CO)[C@@H](O)[C@H](O)[C@H]2O[C@H]2C[C@](C)(N)[C@H](O)[C@H](C)O2)Oc2ccc(cc2Cl)[C@H]1O	0.25 µg/mL
CNC(=O)c1cc(NC(=O)c2cc(NC(=O)OC)co2)co1	> 64 µg/mL

Lab note: next compound to report on.
// fetch MIC for COC(=O)Nc1coc(C(=O)Nc2coc(C(=O)NCCc3ccccc3)c2)c1 ; system: Micrococcus luteus > 64 µg/mL
